MEASUREMENT TYPE: logP
API note: the answer field is a bare number with no unit suffix.

Query: Record request: logP value, item CCOP(=O)(OCC)SCS(=O)(=O)CC
Result: 1.98

====

Give measured solubility for each item. Keep answers brief.
EXPERIMENTAL SETUP: 20 °C
Output spec: scalar in µM, unitless text.

Query: Record request: solubility value, item COP(=S)(OC)Oc1ccc([N+](=O)[O-])cc1
Result: 143

Query: Record request: solubility value, item COc1nn(CSP(=S)(OC)OC)c(=O)s1
Result: 619

Query: Record request: solubility value, item COP(=S)(OC)SCSc1ccc(Cl)cc1
Result: 5.08

Query: Record request: solubility value, item CCOC(=O)CC(SP(=S)(OC)OC)C(=O)OCC (stereo unspecified)
Result: 433

Query: Record request: solubility value, item COP(=S)(OC)SCN1C(=O)c2ccccc2C1=O
Result: 76.9

Query: Record request: solubility value, item CNC(=O)Oc1ccc(N(C)C)c(C)c1
Result: 4390

Query: Record request: solubility value, item CCOP(=O)(OCC)OC(=CCl)c1ccc(Cl)cc1Cl
Result: 345

Query: Record request: solubility value, item CNC(=O)Oc1ccccc1OC(C)C
Result: 8890

Query: Record request: solubility value, item COP(=S)(OC)Oc1ccc([N+](=O)[O-])cc1Cl
Result: 49.4

Query: Record request: solubility value, item COP(=S)(OC)Oc1ccc(SC)c(C)c1
Result: 26.9

Query: Record request: solubility value, item CCOP(=S)(OCC)SCn1nnc2ccccc2c1=O
Result: 30.4
